Kindly state EC50 for each of the entries shown.
Test: Non-nucleoside inhibition of NS5B polymerase in HCV genotype 2b by Taqman probe based RT-PCR analysis
Numeric answer plus unit only.

I am curious: what EC50 value has been reported for CNC(=O)c1c(-c2ccc(F)cc2)oc2cc(N(C)S(C)(=O)=O)c(-c3ccc4nc(C)n(Cc5ccc(F)cn5)c(=O)c4c3)cc12 ?
4.2 nM

Request: CNC(=O)c1c(-c2ccc(F)cc2)oc2cc(N(C)S(C)(=O)=O)c(-c3ccc4nnn(Cc5ccccc5)c(=O)c4c3)cc12
6.2 nM

Record: CNC(=O)c1c(-c2ccc(F)cc2)oc2cc(N(C)S(C)(=O)=O)c(-c3ccc4nc(COC)n(Cc5ccc(F)cc5)c(=O)c4c3)cc12
3.7 nM

---

Assign pEC50 to each entry below.
Experiment: Non-nucleoside inhibition of NS5B polymerase in HCV genotype 1a by Taqman probe based RT-PCR analysis
The value called pEC50 is obtained by taking minus log10 of the concentration in mol/L.

Quick check: pEC50 of CNC(=O)c1c(-c2ccc(F)cc2)oc2cc(N(C)S(C)(=O)=O)c(-c3ccc4nc(C)n(Cc5ccc(F)cn5)c(=O)c4c3)cc12 ?
8.89

Follow-up item: CNC(=O)c1c(-c2ccc(F)cc2)oc2cc(N(C)S(C)(=O)=O)c(-c3ccc4nnn(Cc5ccc(F)cn5)c(=O)c4c3)cc12
8.48

// next record CNC(=O)c1c(-c2ccc(F)cc2)oc2cc(N(C)S(C)(=O)=O)c(-c3ccc4nc(C)n([C@@H](COC)c5ccc(F)cc5)c(=O)c4c3)cc12
9.30

Now the same for CNC(=O)c1c(-c2ccc(F)cc2)oc2cc(N(C)S(C)(=O)=O)c(-c3ccc4nc(CNC(C)=O)n(Cc5ccc(F)cc5)c(=O)c4c3)cc12
8.96

Also need CNC(=O)c1c(-c2ccc(F)cc2)oc2cc(N(C)S(C)(=O)=O)c(-c3ccc4ncn(Cc5ccccc5)c(=O)c4c3)cc12 , thanks.
8.49

Request: CNC(=O)c1c(-c2ccc(F)cc2)oc2cc(N(C)S(C)(=O)=O)c(-c3ccc4nc(C)n([C@H](COC)c5ccc(F)cc5)c(=O)c4c3)cc12
9.22
